Quick reference: MIC of the listed items.
- Test system: KLEBSIELLA PNEUMONIAE ATCC 8045
- assay overview: In vitro antibacterial activity, MIC, BHI agar dilution
- Type: cell-based
- reported conditions: K. pneumoniae ATCC 8045, unit assumed

Below are worked cases with known answers.
[[record]]
molecule = "CCC1OC(=O)C(C)C(=O)C(C)C(OC2OC(C)CC(N(C)C)C2O)C(C)(OC)CC(C)C2=NCC(C)(CN(C)C)N3C(=O)OC1(C)C3C2C (stereo not drawn)"
study_system = "KLEBSIELLA PNEUMONIAE ATCC 8045"
value_measured = "> 100 µg/mL"

[[record]]
molecule = "CC[C@H]1OC(=O)[C@H](C)C(=O)[C@H](C)[C@@H](O[C@@H]2O[C@H](C)C[C@H](N(C)C)[C@H]2O)[C@](C)(OC)C[C@@H](C)C2=NCC(COC(=O)c3ccc([N+](=O)[O-])cc3)N3C(=O)O[C@@]1(C)[C@H]3[C@H]2C (stereo partly drawn)"
study_system = "KLEBSIELLA PNEUMONIAE ATCC 8045"
value_measured = "> 100 µg/mL"


API: the following record is the query input.
I'd like to know its MIC. The molecule in question is CC[C@H]1OC(=O)[C@H](C)C(=O)[C@H](C)[C@@H](O[C@@H]2O[C@H](C)C[C@H](N(C)C)[C@H]2O)[C@](C)(OC)C[C@@H](C)C2=NC3CN(C)CC3N3C(=O)O[C@@]1(C)[C@H]3[C@H]2C (stereo partly drawn)
> 100 µg/mL

====

- Tested on: STREPTOCOCCUS BOVIS A-5169
- assay overview: In vitro antibacterial activity, MIC, BHI agar dilution
- Type: cell-based
- reported conditions: S. bovis A-5169, unit assumed
Quick reference: MIC of the listed items.
Please give a number only; it is taken to be in µg/mL.

Below are worked cases with known answers.
[[record]]
molecule = "CC[C@H]1OC(=O)[C@H](C)C(=O)[C@H](C)[C@@H](O[C@@H]2O[C@H](C)C[C@H](N(C)C)[C@H]2O)[C@](C)(OC)C[C@@H](C)C2=N[C@H](COCCN3CCOCC3)CN3C(=O)O[C@@]1(C)[C@H]3[C@H]2C"
study_system = "STREPTOCOCCUS BOVIS A-5169"
measured_parameter = "MIC"
readout_unit = "µg/mL"
value_measured = 0.05

[[record]]
molecule = "CC[C@H]1OC(=O)[C@H](C)C(=O)[C@H](C)[C@@H](O[C@@H]2O[C@H](C)C[C@H](N(C)C)[C@H]2O)[C@](C)(OC)C[C@@H](C)C2=NC3CN(CCc4ccc(N)cc4)CC3N3C(=O)O[C@@]1(C)[C@H]3[C@H]2C (stereo partly drawn)"
study_system = "STREPTOCOCCUS BOVIS A-5169"
measured_parameter = "MIC"
readout_unit = "µg/mL"
value_measured = 0.01


API: the following record is the query input.
Please provide the recorded MIC for CC[C@H]1OC(=O)[C@H](C)C(=O)[C@H](C)[C@@H](O[C@@H]2O[C@H](C)C[C@H](N(C)C)[C@H]2O)[C@](C)(OC)C[C@@H](C)C2=N[C@H](CCOCc3ccccc3)CN3C(=O)O[C@@]1(C)[C@H]3[C@H]2C , tested on STREPTOCOCCUS BOVIS A-5169.
0.05
